EXPERIMENTAL SYSTEM: human Cot/Tpl2 kinase (Homo sapiens, UniProt P41279)
Construct: human Cot/Tpl2 kinase construct encoding residues 30-398; 6His (N); made in house; host or cells: Sf9 insect cells, baculovirus system (BD Biosciences)
Sequence (P41279 30-398): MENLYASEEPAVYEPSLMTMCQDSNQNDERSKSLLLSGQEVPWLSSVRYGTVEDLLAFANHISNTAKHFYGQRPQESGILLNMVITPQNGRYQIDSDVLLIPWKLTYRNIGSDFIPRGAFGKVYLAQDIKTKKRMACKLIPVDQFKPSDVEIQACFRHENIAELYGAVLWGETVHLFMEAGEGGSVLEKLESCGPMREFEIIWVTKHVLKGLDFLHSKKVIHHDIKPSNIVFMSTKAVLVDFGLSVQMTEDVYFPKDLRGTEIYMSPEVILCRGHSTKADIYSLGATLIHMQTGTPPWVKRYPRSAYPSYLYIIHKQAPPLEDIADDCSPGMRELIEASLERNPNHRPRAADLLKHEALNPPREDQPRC
PROCEDURE SUMMARY: Tpl2/Cot kinase assay: GST-MEK1 phosphorylation detected by ELISA (DELFIA Eu)
Type: biochemical
TEST CONTEXT: Tpl2/Cot kinase, GST-MEK1 substrate, 50 uM ATP
pIC50: −log10 of the molar value.
OBSERVABLE: pIC50

Here's what some known entries look like.
COMPOUND	MEASURED NUMBER
CC(=O)N1CCC(Nc2cc(Cl)c3ncc(C#N)c(Nc4ccc(F)c(Cl)c4)c3c2)CC1	6.18
N#Cc1cnc2c(Cl)cc(NCc3cn(-c4cc[n+]([O-])cc4)nn3)cc2c1Nc1ccc(F)c(Cl)c1	7.80
CN(C)CCC(c1cccnc1)n1cc(CNc2cc(Br)c3ncc(C#N)c(Nc4ccc(F)c(Cl)c4)c3c2)nn1 (stereo not shown)	8.17

[1] N#Cc1ccc(S(=O)(=O)NCCNc2cc(Cl)c3ncc(C#N)c(Nc4ccc(F)c(Cl)c4)c3c2)cc1
[2] CC(C)(C)OC(=O)N1CCCN(CCCn2cc(CNc3cc(Cl)c4ncc(C#N)c(Nc5ccc(F)c(Cl)c5)c4c3)nn2)CC1
[3] CN(C)C(=O)N1CCC(Cn2cc(CNc3cc(Cl)c4ncc(C#N)c(Nc5ccc(F)c(Cl)c5)c4c3)nn2)CC1
[4] N#Cc1cnc2c(Br)cc(NCc3cn(Cc4ccccn4)cn3)cc2c1Nc1ccc(F)c(Cl)c1
Prompt: Arrange these compounds by their pIC50, starting with the largest number. Output spec: labels arranged per the requested ranking.
Response: 3, 4, 2, 1
(3: 8.59, 4: 7.47, 2: 6.92, 1: 6.10)
